- experimental.target: PI-3 kinase γ (Homo sapiens, UniProt P48736)
- Sequence (P48736 whole entry): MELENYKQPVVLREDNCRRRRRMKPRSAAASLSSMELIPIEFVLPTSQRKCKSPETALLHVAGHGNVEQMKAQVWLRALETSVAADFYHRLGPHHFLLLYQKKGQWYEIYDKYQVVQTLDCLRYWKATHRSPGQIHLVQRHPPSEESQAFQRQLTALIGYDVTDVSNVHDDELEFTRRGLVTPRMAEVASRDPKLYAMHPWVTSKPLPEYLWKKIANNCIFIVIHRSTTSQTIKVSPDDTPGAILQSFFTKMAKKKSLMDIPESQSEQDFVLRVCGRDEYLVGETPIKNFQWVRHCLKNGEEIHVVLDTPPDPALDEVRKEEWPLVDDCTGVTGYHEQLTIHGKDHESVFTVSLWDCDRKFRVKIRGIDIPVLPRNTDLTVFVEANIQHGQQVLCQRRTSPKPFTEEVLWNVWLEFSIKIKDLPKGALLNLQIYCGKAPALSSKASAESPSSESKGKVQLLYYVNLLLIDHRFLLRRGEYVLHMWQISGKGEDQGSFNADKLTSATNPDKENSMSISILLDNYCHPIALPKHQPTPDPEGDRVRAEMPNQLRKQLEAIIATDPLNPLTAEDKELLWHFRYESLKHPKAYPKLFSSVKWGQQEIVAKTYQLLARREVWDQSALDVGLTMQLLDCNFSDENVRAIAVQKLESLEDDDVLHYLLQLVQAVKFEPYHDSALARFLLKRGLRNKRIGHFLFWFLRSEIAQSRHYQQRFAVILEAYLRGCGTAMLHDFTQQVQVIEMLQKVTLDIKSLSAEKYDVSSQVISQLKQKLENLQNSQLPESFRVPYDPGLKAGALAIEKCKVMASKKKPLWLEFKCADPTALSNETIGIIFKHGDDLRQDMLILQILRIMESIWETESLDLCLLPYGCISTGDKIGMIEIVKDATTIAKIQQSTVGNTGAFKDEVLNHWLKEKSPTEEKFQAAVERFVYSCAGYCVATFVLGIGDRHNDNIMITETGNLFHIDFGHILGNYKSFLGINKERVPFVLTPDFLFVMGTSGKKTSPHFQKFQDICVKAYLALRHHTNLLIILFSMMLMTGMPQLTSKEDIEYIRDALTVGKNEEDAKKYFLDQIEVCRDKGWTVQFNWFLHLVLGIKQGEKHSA
- assay.protocol: PI3Kγ inhibitory activity, PI3-kinase HTRF assay (inhibition ratio)
- Type: biochemical
- assay.context: 0.5 h; compound at 10 μmol/L
- Procedure: The PI3Kγ inhibitory activity of a compound was evaluated using PI3-kinase HTRF™ assay (Millipore) according to the following procedure: […] 5 μL of a detection reagent containing a europium-labeled anti-GST antibody, the GST-tagged PH domain, and allophycocyanin-labeled streptavidin was added thereto. After 18 hours, HTRF (excitation wavelength: 330 nm, measured wavelengths: 620 nm and 665 nm) was measured. […]
assay.metric: inhibition at 10 µM (%)

Req: Which inhibition at 10 µM is listed for COc1cc(N2CCc3nc(NC(=O)NC4CCCCC4)sc3C2)nc(OC)n1 ?
Resp: 84

Req: Similarly, CN1CCc2cc(N3CCn4nc(NC(=O)c5csc(C(=O)O)c5)cc43)ccc2C1=O ?
Resp: 93

Req: Similarly, CCOC(=O)CCCCC(=O)Nc1cc2n(n1)CCN2c1cccc(OC)c1 ?
Resp: 86

Req: Similarly, CN1CCc2cc(N3CCn4nc(NC(=O)c5cccc(O)c5)cc43)ccc2C1=O ?
Resp: 95

Req: Similarly, CNC(=O)Nc1cc2n(n1)CCN2c1ccc2c(c1)CCN(C)C2=O ?
Resp: 89

Req: Similarly, COc1nc(Cl)cc(N2CCc3nc(NC(=O)NCCC(=O)NC(C)C)sc3C2)n1 ?
Resp: 88

Req: Similarly, CC(C)NC(=O)c1csc(C(=O)Nc2cc3n(n2)CCN3c2ccc3c(c2)CCN(C)C3=O)c1 ?
Resp: 91

Req: Similarly, COc1cc(N2CCc3nc(NC(=O)N4CCC(=O)N5CCOCC5C4=O)sc3C2)nc(OC)n1 (centres unmarked) ?
Resp: 89

Req: Similarly, CN1CCc2cc(N3CCn4nc(NC(=O)c5cc(C(=O)O)cs5)cc43)ccc2C1=O ?
Resp: 93

Req: Similarly, COc1cc(N2CCc3nc(NC(=O)Cc4ccccc4C(=O)NC(C)(C)C)sc3C2)nc(OC)n1 ?
Resp: 82

Req: Similarly, CCOc1ccc(C(=O)Nc2nc3c(s2)CN(c2cc(OC)nc(OC)n2)CC3)o1 ?
Resp: 88

Req: Similarly, CN1CCc2cc(N3CCn4nc(NC(=O)c5cccs5)cc43)ccc2C1=O ?
Resp: 84

Req: Similarly, COc1cc(N2CCc3nc(NC(=O)Nc4ccccn4)sc3C2)nc(OC)n1 ?
Resp: 85

Req: Similarly, CCOC(=O)CNC(=O)Nc1cc2n(n1)CCN2c1ccc2c(c1)CCN(C)C2=O ?
Resp: 81

Req: Similarly, COc1cc(N2CCc3nc(NC(=O)Nc4ccsc4)sc3C2)nc(OC)n1 ?
Resp: 91

Req: Similarly, COc1cc(N2CCc3nc(NC(=O)c4ccc(C)o4)sc3C2)nc(OC)n1 ?
Resp: 87
